Target: SLC27A5
Assay: pooled miR-30 sensor sort-seq; sequence = guide strand
Details: shRNA
Property name: sensor-assay potency score (higher = more potent)
Answer with a bare number; do not write a unit.

- TTGCAAGAAGTCCACCTGCGAC: -1.49
- TAGTTGACTAAGCCCATGTTGC: -0.878
- TTCATCAGTTTGAACGTGCTGG: 0.535
- TACAGGATCACTGTCACGCCAT: -0.0663

Incoming: Fill in the blank: the reported sensor-assay potency score (higher = more potent) of "TATGTGTCCGGTCCTCTGGTTG" is ____.
Outgoing: -1.24

Incoming: Fill in the blank: the reported sensor-assay potency score (higher = more potent) of "TAGTCCATTGCCCATTGCCAGG" is ____.
Outgoing: -1.83

Incoming: Fill in the blank: the reported sensor-assay potency score (higher = more potent) of "TTGTCCAGTACAAACAGAGGGT" is ____.
Outgoing: -0.338

----------
Target: SLC25A30
Assay: pooled miR-30 sensor sort-seq; sequence = guide strand
Conditions: shRNA
sensor-assay potency score (higher = more potent) below -0.4 gives -1; sensor-assay potency score (higher = more potent) at or above it gives 1.

Reference set, count: 5
- TTATAGAGAGCAAAAAACCCTT: -1
- TAAGTGCCTATCTTGATGGTGC: 1
- TTGCTTTGCGCTTGCATCCGAA: -1
- TTCAATGAATAGTCGCTTCAAG: -1
- TGTCTGTAACAAGCAATCCAGG: -1

Incoming: Exam item: decide whether the reported sensor-assay potency score (higher = more potent) for "TTATCGGTAGAGTTTCATCTTC" is at least -0.4.
Outgoing: 1

Incoming: Exam item: decide whether the reported sensor-assay potency score (higher = more potent) for "TATCGGTAGAGTTTCATCTTCT" is at least -0.4.
Outgoing: 1

Incoming: Exam item: decide whether the reported sensor-assay potency score (higher = more potent) for "TAGAGTTTCATCTTCTGGGCGT" is at least -0.4.
Outgoing: 1

----------
Molecular target: GPR3
Test: pooled miR-30 sensor sort-seq; sequence = guide strand
Conditions: shRNA
Property name: sensor-assay potency score (higher = more potent)
Answer with a bare number; do not write a unit.

Illustrative cases are given below, each with its answer.
• TAAATAGACACTGTCTTTGTAT = 0.00652
• TTGGAAGAGGAACAGCAGCAGC = -1.16
• TAGCTCAGAAATTCAAACGTAA = 0.128
• TCTGAGTAGAACACTGACCACC = -0.825

Incoming: Recorded sensor-assay potency score (higher = more potent) for "TGACTAATCTCTCTGACTCTTT" with GPR3, please?
Outgoing: -0.512

Incoming: Recorded sensor-assay potency score (higher = more potent) for "TTGTCTCTGAATAGTAGGTGAG" with GPR3, please?
Outgoing: -1.17

Incoming: Recorded sensor-assay potency score (higher = more potent) for "TAGACAGTGAAGGGCAACCAGC" with GPR3, please?
Outgoing: -1.54

Incoming: Recorded sensor-assay potency score (higher = more potent) for "TATATGTGCATATATAATCTTT" with GPR3, please?
Outgoing: -0.621

----------
Target: C20orf54
Experiment: pooled miR-30 sensor sort-seq; sequence = guide strand
Conditions: shRNA
Property name: sensor-assay potency score (higher = more potent)
Answer with a bare number; do not write a unit.

* TATCTCAGTGACATTGACGCAG | 0.229
* TTGACGTAACTGAGGCAGCCGC | -1.38
* TTCCCTTCTAACACCCTTGGGC | 0.125
* TTGCAGAAGTCCGCGGACGAGA | -1.3

Incoming: Fill in the blank: the reported sensor-assay potency score (higher = more potent) of "TTACTCTCCAACTAGTGGGCTT" is ____.
Outgoing: -0.23

Incoming: Fill in the blank: the reported sensor-assay potency score (higher = more potent) of "TTTCTCCTCTAGATACCCCTGG" is ____.
Outgoing: 0.0398

Incoming: Fill in the blank: the reported sensor-assay potency score (higher = more potent) of "ATCTCAGTGACATTGACGCAGG" is ____.
Outgoing: -1.25

Incoming: Fill in the blank: the reported sensor-assay potency score (higher = more potent) of "TTATCTGCTTGTCTTGTAGAAG" is ____.
Outgoing: -1.04
